PROTOCOL: Drug concentration in human at steady state at 1% applied topically BID after 12 hrs
Format: ADME
CONDITION INFO: topical or ocular, read-out: Css
REPORTED METRIC: concentration at 12 h (nM)
One number for each entry, in nM.

concentration at 12 h for CC[C@@H]1/C=C(\C)C[C@H](C)C[C@H](OC)[C@H]2O[C@@](O)(C(=O)C(=O)N3CCCC[C@H]3C(=O)O[C@H](/C(C)=C/[C@@H]3CC[C@H](Cl)[C@H](OC)C3)[C@H](C)[C@@H](O)CC1=O)[C@H](C)C[C@@H]2OC is 2

====

PROTOCOL: AUC in human at 300 mg, po QD after 24 hrs
Format: ADME, organism-based
Parameters: time < 24 hr, dose 300 mg, route oral
CONDITION INFO: in vivo
REPORTED METRIC: AUC at 24 h (µM·h)
Answers are plain numbers, in µM·h.

Notebook: O=C(Nc1cccc2c(=O)cc(-c3nnn[nH]3)oc12)c1ccc(OCCCCc2ccccc2)cc1 , AUC at 24 h read as 8.71

Data origin: ChEMBL document CHEMBL4028801
